Listed compounds paired with reported relative viability
tested on: UMB1949 (TSC2-deficient); experiment: relative viability vs DMSO (fraction); higher = less cytotoxic; details: 5000 nM; serum: 0.1% FBS; 72 h
Form rule: numeric answer, no unit written next to it.

Use the examples below as a reference point.
CC(C)C[C@H](NC(=O)CNC(=O)c1cc(Cl)ccc1Cl)B(O)O :: 0.000752
CO[C@H]1C[C@@H]2CC[C@@H](C)[C@@](O)(O2)C(=O)C(=O)N2CCCC[C@H]2C(=O)O[C@H]([C@H](C)C[C@@H]2CC[C@@H](O)[C@H](OC)C2)CC(=O)[C@H](C)/C=C(\C)[C@@H](O)[C@@H](OC)C(=O)[C@H](C)C[C@H](C)/C=C/C=C/C=C/1C [Rapamycin(Sirolimus)] :: 0.364

**Q:** For the record CC1(C)CC(=O)c2c(C(F)(F)F)nn(-c3ccc(C(N)=O)c(N[C@H]4CC[C@H](O)CC4)c3)c2C1 , what value of relative viability is listed for UMB1949 (TSC2-deficient)?
**A:** 0.00394

###

Each record here notes measured relative viability.
tested on: 621-102 (TSC2-deficient); assay: relative viability vs DMSO (fraction); higher = less cytotoxic; conditions: 0.064 nM; serum: 0.1% FBS; 72 h
Give only the figure.

**Q:** Which relative viability is listed for CCCCc1nc2cc(/C=C/C(=O)NO)ccc2n1CCN(CC)CC ?
**A:** 0.957

**Q:** Quick one: CO[C@H]1C[C@@H]2CC[C@@H](C)[C@@](O)(O2)C(=O)C(=O)N2CCCC[C@H]2C(=O)O[C@H]([C@H](C)C[C@@H]2CC[C@@H](O)[C@H](OC)C2)CC(=O)[C@H](C)/C=C(\C)[C@@H](O)[C@@H](OC)C(=O)[C@H](C)C[C@H](C)/C=C/C=C/C=C/1C [Rapamycin(Sirolimus)]
**A:** 0.495

**Q:** Field entry: O=C1Nc2ccccc2/C1=C1/Nc2ccccc2C1=O
**A:** 0.927

**Q:** // same read-out, input: Nc1ccn([C@@H]2O[C@H](CO)[C@@H](O)[C@@H]2O)c(=O)n1
**A:** 1.08

**Q:** How about this compound: Cc1cc(Nc2cc(CN3CCOCC3)c3nc(C)c(Cc4ccc(Cl)cc4F)n3n2)n[nH]1
**A:** 1.05

**Q:** Input Cc1[nH]c2ccccc2c1CCNCc1ccc(/C=C/C(=O)NO)cc1
**A:** 0.935

**Q:** Subsequent entry: O=C(Nc1c[nH]nc1-c1nc2ccc(CN3CCOCC3)cc2[nH]1)NC1CC1
**A:** 0.98

###

tested on: 621-102 (TSC2-deficient); assay: relative viability vs DMSO; higher = less cytotoxic; details: 10 µM; serum: 10% FBS; 72 h
Counter-ions that a name gives are not always drawn.
Labelling field: enter satisfied if recorded relative viability is less than 70%. Enter not satisfied if it equals or exceeds that cut-off.

Here's what some known entries look like.
O=c1cc(N2CCOCC2)oc2c(-c3cccc4c3sc3ccccc34)cccc12 :: satisfied
CCN1CCCC1CNC(=O)c1cc(S(=O)(=O)CC)c(N)cc1OC (stereo not drawn) [Amisulpride] :: not satisfied
O=c1cc(-c2cccc3c2Sc2ccccc2S3)oc(N2CCOCC2)c1 :: not satisfied

**Q:** Does the reported relative viability of the following compound sit strictly below 70%? CCC(=O)O[C@H]1CC[C@H]2[C@@H]3CCC4=CC(=O)CC[C@]4(C)[C@H]3CC[C@]12C [Testosterone propionate (Agovirin)]
**A:** not satisfied

**Q:** Then what about the compound COC(=O)C1=C(C)NC(C)=C(C(=O)OCCN2CCN(C(c3ccccc3)c3ccccc3)CC2)C1c1cccc([N+](=O)[O-])c1 (stereo not drawn) [Manidipine HCl (CV-4093)] ?
**A:** not satisfied

###

tested on: 621-102 (TSC2-deficient); assay: relative viability vs DMSO; higher = less cytotoxic; settings: 0.1 µM; serum: 10% FBS; 72 h
Counter-ions that a name gives are not always drawn.
Quantity name: relative viability (%)
Report as a plain number; the unit % is understood.

CCS(=O)(=O)c1cccc(-c2cc(C(=O)NC3CCN(C)CC3)c(C)c3[nH]c4ncc(C)cc4c23)c1 :: 75.5
NC12CC3CC(CC(C3)C1)C2 [Amantadine HCl (Symmetrel)] :: 98.5
Cc1ccc(C(=O)N(CCCN)[C@@H](c2oc3cc(Cl)ccc3c(=O)c2Cc2ccccc2)C(C)C)cc1 :: 69.9
COC(=O)C1=C(C)NC(C)=C(C(=O)OCC(C)C)C1c1ccccc1[N+](=O)[O-] (stereo not drawn) :: 107
O=c1ncn2nc(Sc3ccc(F)cc3F)ccc2c1-c1c(Cl)cccc1Cl :: 104

**Q:** State its relative viability on 621-102 (TSC2-deficient): COC(=O)N[C@H](C(=O)N1CCC[C@H]1c1ncc(-c2ccc(-c3ccc(-c4cnc([C@@H]5CCCN5C(=O)[C@@H](NC(=O)OC)C(C)C)[nH]4)cc3)cc2)[nH]1)C(C)C
**A:** 101

**Q:** Moving on to Cc1nc(Nc2ncc(C(=O)Nc3c(C)cccc3Cl)s2)cc(N2CCN(CCO)CC2)n1
**A:** 67.6

**Q:** And CC1(C)CC(=O)c2c(C(F)(F)F)nn(-c3ccc(C(N)=O)c(N[C@H]4CC[C@H](OC(=O)CN)CC4)c3)c2C1 ?
**A:** 18.7

###

tested on: 621-102 (TSC2-deficient); experiment: relative viability vs DMSO (fraction); higher = less cytotoxic; settings: 0.32 nM; serum: 0.1% FBS; 72 h
Where a name gives a salt, the structure may show the parent alone.
Quantity name: relative viability
Reply briefly: the number, and no unit.

Examples with their reported relative viability follow.
O=C(Cc1ccc(-c2ccc(OCCN3CCOCC3)cc2)cn1)NCc1ccccc1 :: 1.06
Nc1ncnc2c1c(-c1cccc(OCc3ccccc3)c1)cn2C1CC(CN2CCCC2)C1 (centres undefined) :: 1.03
Nc1ccn([C@@H]2O[C@H](CO)[C@@H](O)C2(F)F)c(=O)n1 [Gemcitabine Hydrochloride] :: 0.953

Below: the item to evaluate.
**Q:** Given the entry C#Cc1cccc(Nc2ncnc3cc(OC)c(OCCCCCCC(=O)NO)cc23)c1 , report its measured relative viability.
**A:** 0.505

###

test system: 621-103 (TSC2-rescued); test: relative viability vs DMSO; higher = less cytotoxic; settings: 10 µM; serum: 10% FBS; 72 h
Quantity name: relative viability (%)
Please give a number only; it is taken to be in %.

Cn1c(=O)c(F)c(Nc2ccc(I)cc2F)c2c(=O)n(C[C@@H](O)CO)cnc21 [TAK-733] :: 51.7
COc1c(C)cnc(Cn2cnc3c(Cl)nc(N)nc32)c1C [BIIB021] :: 4.56

**Q:** Fill in: relative viability of COc1ccccc1N1CCN(CCN(C(=O)C2CCCCC2)c2ccccn2)CC1 is ___
**A:** 98.5

**Q:** What would you report for CS(=O)(=O)N1CCN(Cc2cc3nc(-c4cccc5[nH]ncc45)nc(N4CCOCC4)c3s2)CC1 [GDC-0941] ?
**A:** 37.9

**Q:** One more compound: COc1cc(OC)c(/C=C/S(=O)(=O)Cc2ccc(OC)c(NCC(=O)O)c2)c(OC)c1
**A:** 24.1

**Q:** Next entry: CC(C)Cc1ccc(C(C)C(=O)O)cc1 (centres undefined) [Ibuprofen]
**A:** 98.8

**Q:** Record: CC1(C)CNc2cc(NC(=O)c3cccnc3NCc3ccncc3)ccc21 [Motesanib DiPhosphate]
**A:** 98

**Q:** Next record, please: CN(C)Cc1cccc(N=C(c2ccccc2)c2c(O)[nH]c3cc(C(=O)N(C)C)ccc23)c1
**A:** 47.4

**Q:** Try this compound next: COc1cc(Nc2ncc3c(n2)-c2ccc(Cl)cc2C(c2c(F)cccc2OC)=NC3)ccc1C(=O)O [MLN8237]
**A:** 74.6

###

tested on: UMB1949 (TSC2-deficient); assay: relative viability vs DMSO (fraction); higher = less cytotoxic; conditions: 1.6 nM; serum: 0.1% FBS; 72 h;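 also: renal angiomyolipoma cell lines screened in 384-well plates, viability normalized per plate to DMSO-treated cells, each plate carrying 50 nM rapamycin and 1 µM staurosporine controls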
Structures can show the parent of a compound that is named as a salt.
Quantity name: relative viability
I only need the number, thanks.

CO[C@H]1C[C@@H]2CC[C@@H](C)[C@@](O)(O2)C(=O)C(=O)N2CCCC[C@H]2C(=O)O[C@H]([C@H](C)C[C@@H]2CC[C@@H](O)[C@H](OC)C2)CC(=O)[C@H](C)/C=C(\C)[C@@H](O)[C@@H](OC)C(=O)[C@H](C)C[C@H](C)/C=C/C=C/C=C/1C [Rapamycin(Sirolimus)] :: 0.773
COc1ccc(S(=O)(=O)N(C(C)=O)c2ccccc2/C=C/c2cc[n+]([O-])cc2)cc1 :: 1.17

# context switch: different compound, same relative viability
**Q:** // lookup relative viability for CN1CC[C@H](c2c(O)cc(O)c3c(=O)cc(-c4ccccc4Cl)oc23)[C@H](O)C1 [Flavopiridol hydrochloride]
**A:** 1.04

These entries and their values trace back to the supplement of paper PMC8960247.
